target: T1, human CD3 on human T cells (Jurkat) (human, UniProt P07766 23-207; P04234 22-171; P09693 23-182); experiment: flow cytometry, Jurkat cells, 0 nM antibody (background)
T1 construct: whole, on cells; also called huCD3+; cell surface CD3 on human (Jurkat) T cells
T1 sequence (P07766 23-207, chain 1 of 3): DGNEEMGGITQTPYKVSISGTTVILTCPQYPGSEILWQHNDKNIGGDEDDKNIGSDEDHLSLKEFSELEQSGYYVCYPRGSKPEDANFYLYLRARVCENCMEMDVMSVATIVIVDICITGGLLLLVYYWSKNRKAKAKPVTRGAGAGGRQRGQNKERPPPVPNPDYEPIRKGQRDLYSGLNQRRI
T1 sequence (P04234 22-171, chain 2 of 3): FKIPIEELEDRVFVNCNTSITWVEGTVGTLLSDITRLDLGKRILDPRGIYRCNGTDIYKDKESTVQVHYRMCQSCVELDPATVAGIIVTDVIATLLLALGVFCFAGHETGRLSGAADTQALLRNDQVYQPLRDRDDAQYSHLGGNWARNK
T1 sequence (P09693 23-182, chain 3 of 3): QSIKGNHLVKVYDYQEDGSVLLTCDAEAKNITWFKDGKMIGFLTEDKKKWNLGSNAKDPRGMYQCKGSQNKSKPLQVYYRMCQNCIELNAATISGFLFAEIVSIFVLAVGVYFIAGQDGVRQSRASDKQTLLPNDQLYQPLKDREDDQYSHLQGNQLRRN
Property label: MFI
Just the number, please.

# Binder, Property label, Assay value
rows = [
    ("HuL2H2 (Fab, V domains shown, Humanized Fab expressed in Expi293F; also called VL2 + VH2 humanized Fab) VH: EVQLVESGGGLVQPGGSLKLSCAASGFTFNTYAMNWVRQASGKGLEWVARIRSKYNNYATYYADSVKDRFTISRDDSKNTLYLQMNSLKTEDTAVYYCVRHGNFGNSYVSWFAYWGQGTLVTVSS VL: QAVVTQEPSLTVSPGGTVTLTCGSSTGAVTTSNYANWVQQKPGQAFRGLIYGTNKRAPWTPARFSGSLLGGKAALTISGAQPEDEAEYYCALWYSNLWVFGGGTKLTVL", "MFI", 1400),
]

Query: MFI; subject: HuL7H2 (Fab, V domains shown, Humanized Fab expressed in Expi293F; also called VL7 + VH2 humanized Fab) VH: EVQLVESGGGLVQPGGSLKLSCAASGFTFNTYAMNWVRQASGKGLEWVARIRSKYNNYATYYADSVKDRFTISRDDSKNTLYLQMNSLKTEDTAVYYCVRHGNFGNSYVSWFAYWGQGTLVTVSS VL: QAVVTQEPSLTVSPGGTVTLTCRSSTGAVTTSNYANWVQQKPGQAFRGLIGGTNKRAPGTPARFSGSLLGDKAALTISGAQPEDEAEYYCALWYSNLWVFGGGTKLTVL
1250
